Attribute: phosphorylation enrichment
molecular target: EPHB2 (UniProt P29323); assay: phosphorylation enrichment, bacterial display (enrichment ratio); higher = better substrate or ligand; peptides without Tyr show the background;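 also: 11-residue human phosphosite peptides and single-mutation variants displayed on the E. coli surface, counted by deep sequencing, each peptide's frequency after selection divided by its frequency in the unselected input library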;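 also: frequency after pTyr selection over input frequency; kinase dosed for 20-30% of maximal phosphorylation in three min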
Sequence (P29323 whole entry, looked up): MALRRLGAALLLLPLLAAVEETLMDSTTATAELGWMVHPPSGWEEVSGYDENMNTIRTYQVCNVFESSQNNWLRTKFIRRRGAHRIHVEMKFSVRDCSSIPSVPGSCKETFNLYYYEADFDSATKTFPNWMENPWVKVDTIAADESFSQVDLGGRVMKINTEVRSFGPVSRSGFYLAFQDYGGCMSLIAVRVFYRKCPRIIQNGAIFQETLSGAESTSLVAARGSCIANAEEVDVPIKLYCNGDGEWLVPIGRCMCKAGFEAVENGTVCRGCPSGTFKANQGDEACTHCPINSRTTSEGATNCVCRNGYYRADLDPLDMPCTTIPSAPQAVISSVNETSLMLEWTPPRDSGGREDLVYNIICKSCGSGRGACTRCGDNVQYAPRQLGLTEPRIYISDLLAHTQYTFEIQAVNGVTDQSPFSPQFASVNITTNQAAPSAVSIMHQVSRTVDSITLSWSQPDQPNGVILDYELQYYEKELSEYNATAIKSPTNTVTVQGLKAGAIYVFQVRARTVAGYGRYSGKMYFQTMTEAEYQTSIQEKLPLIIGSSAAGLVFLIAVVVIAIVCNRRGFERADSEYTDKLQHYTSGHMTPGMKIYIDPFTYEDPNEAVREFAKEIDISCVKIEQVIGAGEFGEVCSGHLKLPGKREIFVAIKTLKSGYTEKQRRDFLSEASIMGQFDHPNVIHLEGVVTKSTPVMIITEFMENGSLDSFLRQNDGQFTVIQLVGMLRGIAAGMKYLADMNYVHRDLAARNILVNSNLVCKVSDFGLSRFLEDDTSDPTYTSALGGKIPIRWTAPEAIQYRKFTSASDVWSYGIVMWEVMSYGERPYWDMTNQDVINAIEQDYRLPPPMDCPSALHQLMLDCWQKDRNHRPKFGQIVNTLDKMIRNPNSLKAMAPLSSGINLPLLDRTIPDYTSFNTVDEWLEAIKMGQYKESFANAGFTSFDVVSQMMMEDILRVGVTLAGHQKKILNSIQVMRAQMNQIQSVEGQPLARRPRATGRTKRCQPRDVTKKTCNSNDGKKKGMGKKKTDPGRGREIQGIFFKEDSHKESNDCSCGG

>  <residue-codes>
RALRHYYKLNI [ETV6_Y401]

>  <phosphorylation enrichment>
0.415

$$$$
>  <residue-codes>
KNNDGYTDFAE [MCFD2_Y135_I136T_YF]

>  <phosphorylation enrichment>
0.594

$$$$
>  <residue-codes>
DEDEEYEYMNR [ERBB3_Y1197]

>  <phosphorylation enrichment>
0.712

$$$$
>  <residue-codes>
CQASLYPSNHD [LRIG1_Y996_G993A]

>  <phosphorylation enrichment>
0.624

$$$$
>  <residue-codes>
AGGTRYRFVSQ [UCN3_Y95_R91G_YF]

>  <phosphorylation enrichment>
0.272

$$$$
>  <residue-codes>
GEPLSHTRFSL [TFRC_Y20_Y20H]

>  <phosphorylation enrichment>
0.36

$$$$
>  <residue-codes>
NGSFRYVIISQ [LRP1B_Y1988]

>  <phosphorylation enrichment>
0.581

$$$$
>  <residue-codes>
MDQAEYQAKIQ [DHX58_Y518_R523Q]

>  <phosphorylation enrichment>
0.7

$$$$
>  <residue-codes>
PGVNFYFQVSA

>  <phosphorylation enrichment>
1.24

$$$$
>  <residue-codes>
LPPGEYVVVPS [CAPN1_Y494]

>  <phosphorylation enrichment>
3.72

$$$$
>  <residue-codes>
RRNEIYEIKVD [LGR5_Y387_H383R]

>  <phosphorylation enrichment>
1.4

$$$$
>  <residue-codes>
DKATEYIQFVR [MAX_Y70_M74V_YF]

>  <phosphorylation enrichment>
0.53

$$$$
>  <residue-codes>
ERPIRYLNHQL [CEP152_Y268_Q265P]

>  <phosphorylation enrichment>
0.409

$$$$
>  <residue-codes>
LGQRIYQFIRS [DYRK1B_Y271_Q275R_YF]

>  <phosphorylation enrichment>
2.54

$$$$
>  <residue-codes>
RAIDMYLMGCF [GABRB2_Y308_K303R]

>  <phosphorylation enrichment>
0.706

$$$$
>  <residue-codes>
VKPENYWRLDI [VHL_Y175_R176W]

>  <phosphorylation enrichment>
0.61

$$$$
>  <residue-codes>
HFGCVYYGTLL [MET_Y1093_H1094Y]

>  <phosphorylation enrichment>
1.42

$$$$
>  <residue-codes>
QMIETYFDFRL [NSMF_Y506]

>  <phosphorylation enrichment>
1.36

$$$$
>  <residue-codes>
SSMIDYNTLEK [MYOC_Y479_P481T]

>  <phosphorylation enrichment>
0.506

$$$$
>  <residue-codes>
LKGQVYILVRE [ASS1_Y359_G362V]

>  <phosphorylation enrichment>
0.652

$$$$
>  <residue-codes>
SYMVRYNQPRV [GRIN2D_Y736]

>  <phosphorylation enrichment>
0.51

$$$$
>  <residue-codes>
MPAVTYTPAMR [MEGF10_Y895]

>  <phosphorylation enrichment>
0.328

$$$$
>  <residue-codes>
IGNGYYFRVFS [MYBPC3_Y1136]

>  <phosphorylation enrichment>
0.667

$$$$
>  <residue-codes>
EEGNPSFSSAR [MCCC2_Y520_Y520S_YF]

>  <phosphorylation enrichment>
0.467

$$$$
>  <residue-codes>
RAILDYIASKY [GSTA3_Y74_N73D]

>  <phosphorylation enrichment>
0.646

$$$$
>  <residue-codes>
STQAHYRLSAF [ADAMTS9_Y100_S96T]

>  <phosphorylation enrichment>
0.381

$$$$
>  <residue-codes>
TSAEGYQDVRD [ABLIM1_Y439_P434T]

>  <phosphorylation enrichment>
0.774

$$$$
>  <residue-codes>
AFEQQYSPIPK [NOX1_Y373_R378K]

>  <phosphorylation enrichment>
0.411

$$$$
>  <residue-codes>
DFFDLYGGQKF [PTPN11_Y66_E69Q_YF]

>  <phosphorylation enrichment>
0.662

$$$$
>  <residue-codes>
LIDSSYLTRTA [GREB1L_Y1063]

>  <phosphorylation enrichment>
0.746

$$$$
>  <residue-codes>
EEGRVYVYRLS [ITGAE_Y549]

>  <phosphorylation enrichment>
0.504

$$$$
>  <residue-codes>
LLARLYRGQAL [FGFR4_Y390_G388R]

>  <phosphorylation enrichment>
0.477

$$$$
>  <residue-codes>
NPETCYQKLKK [TK2_Y190_R192K]

>  <phosphorylation enrichment>
0.451

$$$$
>  <residue-codes>
GGGMFYPLDLF

>  <phosphorylation enrichment>
0.454

$$$$
>  <residue-codes>
RAYRHYLLKQK [SCN2A_Y1919_R1918H]

>  <phosphorylation enrichment>
0.602

$$$$
>  <residue-codes>
WKEREYEVVRD [CPS1_Y634_I632R]

>  <phosphorylation enrichment>
2.29

$$$$
>  <residue-codes>
GINDDHGQLKN [NBN_Y679_Y679H]

>  <phosphorylation enrichment>
0.475

$$$$
>  <residue-codes>
SVVVPYETPEV [TP53_Y220_P222T]

>  <phosphorylation enrichment>
0.862

$$$$
